Biological target: cloned human or rodent CNS receptors, channels, and transporters (PDSP panel) (Homo sapiens)
Construct: expressed in transfected cells
Sequence (P28335 33-458): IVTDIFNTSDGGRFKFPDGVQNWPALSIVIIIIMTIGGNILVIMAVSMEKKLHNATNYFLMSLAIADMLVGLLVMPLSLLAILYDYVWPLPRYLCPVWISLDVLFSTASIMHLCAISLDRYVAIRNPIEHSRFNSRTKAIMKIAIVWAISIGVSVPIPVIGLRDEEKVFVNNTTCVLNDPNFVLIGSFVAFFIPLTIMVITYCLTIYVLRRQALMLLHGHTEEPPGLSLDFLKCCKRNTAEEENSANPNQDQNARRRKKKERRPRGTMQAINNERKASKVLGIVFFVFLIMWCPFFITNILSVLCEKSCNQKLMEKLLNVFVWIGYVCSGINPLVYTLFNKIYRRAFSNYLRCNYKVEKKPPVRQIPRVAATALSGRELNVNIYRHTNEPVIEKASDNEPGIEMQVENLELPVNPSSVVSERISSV
Experiment: PDSP GPCR panel primary binding assays at 10 μM
Settings: 5-HT2C; primary assay, replicate 2
Documented Inhibition 2 across a set of compounds
Numeric answer only, unit % assumed.

Answered cases to consult:
compound	val
CCC(=O)N1CCC(NC(=O)Nc2ccc(OC(F)(F)F)cc2)CC1 [UNC10302681A, TPPU]	-10.8
O=C(NC1CC1)C(=O)C(Cc1ccccc1)NC(=O)[C@H]1CCC(=O)N1Cc1ccccc1 (stereo partly shown) [UNC10302676A, ABT-957 (Alicapistat)]	-14.23
CNc1nc(C)nc(N[C@H]2CCC[C@@H](C(=O)NCc3ccc(C#N)cc3C(F)(F)F)C2)n1 [UNC10302679A, GSK2256294A]	-11.29

Challenge: Look at this compound and give its reported Inhibition 2. CC(=O)N1CCC(NC(=O)NC23CC4CC(CC(C4)C2)C3)CC1 [UNC10302683A, AR9281]
Response given: -11.78
